Target Or Test System: T1, Calpain-1
T1 chain 1: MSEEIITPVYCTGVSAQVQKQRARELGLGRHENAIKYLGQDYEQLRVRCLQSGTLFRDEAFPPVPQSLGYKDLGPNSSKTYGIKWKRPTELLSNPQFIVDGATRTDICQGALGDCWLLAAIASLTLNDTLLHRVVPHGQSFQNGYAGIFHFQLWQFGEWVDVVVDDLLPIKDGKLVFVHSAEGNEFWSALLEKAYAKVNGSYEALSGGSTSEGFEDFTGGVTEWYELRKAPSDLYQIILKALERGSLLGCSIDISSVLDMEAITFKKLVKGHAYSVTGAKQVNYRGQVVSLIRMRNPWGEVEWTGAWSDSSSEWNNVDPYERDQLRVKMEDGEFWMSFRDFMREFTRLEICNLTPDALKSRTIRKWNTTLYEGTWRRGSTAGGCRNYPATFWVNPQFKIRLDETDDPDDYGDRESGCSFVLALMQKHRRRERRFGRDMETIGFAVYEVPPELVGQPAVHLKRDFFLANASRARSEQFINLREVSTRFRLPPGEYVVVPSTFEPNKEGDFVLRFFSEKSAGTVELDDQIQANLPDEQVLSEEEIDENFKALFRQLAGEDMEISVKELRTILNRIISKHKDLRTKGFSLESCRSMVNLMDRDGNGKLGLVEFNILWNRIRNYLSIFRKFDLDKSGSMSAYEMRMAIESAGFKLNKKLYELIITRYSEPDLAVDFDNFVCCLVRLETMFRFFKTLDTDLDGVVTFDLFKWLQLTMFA
T1 chain 2: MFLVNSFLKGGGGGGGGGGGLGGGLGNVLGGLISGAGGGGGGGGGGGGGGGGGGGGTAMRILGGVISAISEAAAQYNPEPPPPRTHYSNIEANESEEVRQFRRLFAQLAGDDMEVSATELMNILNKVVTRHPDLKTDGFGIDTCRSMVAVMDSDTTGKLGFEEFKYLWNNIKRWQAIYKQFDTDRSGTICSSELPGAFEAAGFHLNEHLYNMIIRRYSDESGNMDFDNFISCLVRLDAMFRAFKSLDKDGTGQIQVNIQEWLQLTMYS
Test Summary: fluorescence-based enzyme inhibition assay
Positions of bridges follow the written chain, without caps; N, C: chain ends. No end group written: not given here. alpha,alpha'‑meta‑xylylene = alpha,alpha'-meta-xylylene linker (from a,a'-dibromo-meta-xylene) bridging two cysteines via bis-thioether
Entries and their Ki
The answer is to be given in µM; state only the numeric part.

Recorded Ki (binder APPKYCELLC (linker 6-10 via alpha,alpha'‑meta‑xylylene) [APPKYCELLC (SEQ ID NO:72)] ): 65.6

Further cases:
Recorded Ki (binder LFKREVTIPPKYCELLC (linker 13-17 via alpha,alpha'‑meta‑xylylene, 17 amino acids) [LFKREVTIPPKYCELLC (SEQ ID NO:68)] ): 1.3

Recorded Ki (binder IPPKYCELLC (linker 6-10 via alpha,alpha'‑meta‑xylylene) [IPPKYCELLC (SEQ ID NO:65)] ): 10.2

Reference source for all entries: patent US20150133367A1
